Reference source for all entries: patent US20140348834A1

- target-or-system: T1, rat IL-17A (rat, UniProt Q61453 18-150, limits assumed)
- T1 sequence (looked up): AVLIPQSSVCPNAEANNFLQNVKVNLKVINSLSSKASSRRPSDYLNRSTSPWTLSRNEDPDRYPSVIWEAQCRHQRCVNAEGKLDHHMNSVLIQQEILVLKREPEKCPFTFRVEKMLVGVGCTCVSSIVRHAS
- assay: cell-based or functional assay
Measured Potency (pM), IL-17 and TNF-induced IL-6 secretion from NIH3T3 cells values are reported for all entries that follow.
Reply numerically in pM, unit not repeated.

binder	reported
IL17-B6-11 (antibody, V domains shown) VH: EVQLVQSGAEVKKPGSSVKVSCKASGGSFLSYGFSWVRQAPGQGLEWMGGITPFFGFADYAQKFQGRVTITADESTTTAYMELSGLTSDDTAVYYCAREPNDFWNGYYTTHHFDYWGQGTTVTVSS VL: DVVMTQSPDFQSVTPKEKVTITCRASQNIGSALHWYQQKPDQSPKLLIKYASQSISGVPSRFSGSGSGTDFTLTINGLEAEDAGTYYCHQSTSLPHTFGQGTKLDIKR	6100

Kindly review the next binder as well.
Form field: reported Potency (pM), IL-17 and TNF-induced IL-6 secretion from NIH3T3 cells of IL17-B6-16 (antibody, V domains shown, also called pJP247 B6.1 #16VH / pJP248 B6.1 #16Vk) VH: EVQLVQSGAEVKMPGSSLKISCKASGGSFRGYGISWVRQAPGQGLEWMGGITPFFGWADYAQKFQGRVTITADESTTTAYMELSGLTSDDTAVYYCARDPNEFWNGYYDTHHFDYWGQGTTVTVSS VL: EIVLTQSPDFQSVTPKEKVTITCRASQDIGSALHWYQQKPDQSPKLLIKYASHSVSGVPSRFSGSGSGTDFTLTINGLEAEDAGTYYCHQSDILPHTFGPGTKVDIK
167
